Values compiled from patent US20140113093A1.

Reported pEC50 values are given for each entry in this list.
assayed.system: UniProt P03372
Sequence (P03372 311-547 limits assumed): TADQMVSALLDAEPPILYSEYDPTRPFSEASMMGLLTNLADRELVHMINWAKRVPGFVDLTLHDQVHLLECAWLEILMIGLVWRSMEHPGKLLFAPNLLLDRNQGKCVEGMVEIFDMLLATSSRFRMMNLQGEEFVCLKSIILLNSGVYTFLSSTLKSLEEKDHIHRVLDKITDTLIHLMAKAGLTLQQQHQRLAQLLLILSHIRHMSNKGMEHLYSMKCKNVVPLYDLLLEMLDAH
test.method.notes: GeneBLAzer Cell-Based Nuclear Receptor Assay (beta-lactamase reporter), EC50 response value to ERα
conditions: ER-α-UAS-bla GripTite 293 cells, agonist mode, 16-24 hours at 37° C., monomers tested at 7 to 250000 nM
pEC50: −log10 of the molar value.

| molecule | recorded.result |
| --- | --- |
| O=S(=O)(c1ccc(O)cc1)c1ccc(O)cc1 [Bisphenol S, 4,4′-dihydroxy-diphenylsulfone, reference compound] | 5.38 |

### Prompt Given O=P(c1ccccc1)(c1ccc(Oc2ccc(O)cc2)cc1)c1ccc(Oc2ccc(O)cc2)cc1 [Example 5 (HPPPO)] , respond with its pEC50.
### Response < 3.60

### Prompt Given O=S(=O)(c1ccc(Oc2ccc(O)cc2)cc1)c1ccc(Oc2ccc(O)cc2)cc1 [Example 3 (HBS), Bis-4-hydroxyphenoxydiphenylsulfone] , respond with its pEC50.
### Response < 4.10

### Prompt Given O=S(=O)(c1ccc(O)cc1)c1ccc(-c2ccc(S(=O)(=O)c3ccc(O)cc3)cc2)cc1 [Example 1 (HPS), Hydroxysulfonebiphenyl] , respond with its pEC50.
### Response < 4.10

### Prompt Given CC(C)(c1ccc(O)cc1)c1ccc(C(C)(C)c2ccc(O)cc2)cc1 [BisP, reference compound] , respond with its pEC50.
### Response < 4.60
